test: High-throughput (direct-to-biology) human liver microsomal stability assay; details: both, human, microsomes, pH 7.4
Field: remaining at 0.5 h, 105 µM. Provide a value for each of the compounds that follow.
Numbers only, in %.

Worked cases, remaining at 0.5 h, 105 µM given:
Give remaining at 0.5 h, 105 µM for the following compound: CN(Cc1ccc(C(C)(C)C)cc1)Cc1cccc2ccccc12 [Butenafine]
95.6

For the compound CCC1(c2ccccc2)C(=O)NCNC1=O [Primidone] , give its reported remaining at 0.5 h, 105 µM.
43.6

// fetch remaining at 0.5 h, 105 µM given entry CC(C(=O)O)c1ccc(-c2ccccc2)c(F)c1 (centres unmarked) [Flurbiprofen]
25.1

Give me measured remaining at 0.5 h, 105 µM, please, for this compound: COc1ccccc1N1CCN(CC(O)COc2cccc3ccccc23)CC1 (centres unmarked) [Naftopidil]
58.9

Lab note: each compound below needs its remaining at 0.5 h, 105 µM filled in.
1. COc1ccc2cc(CCC(C)=O)ccc2c1 [Nabumetone, nabumetone]
2. O=C(C1CCCCC1)N1CC(=O)N2CCc3ccccc3C2C1 (centres unmarked) [Praziquantel, praziquantel]
3. CCN(Cc1ccncc1)C(=O)C(CO)c1ccccc1 (centres unmarked) [Tropicamide]
4. CCOC(=O)[C@H](C)C[C@@H](Cc1ccc(-c2ccccc2)cc1)NC(=O)CCC(=O)O [Sacubitril]

[40.7, 31.8, 91.9, 34]

###

test: High-throughput (direct-to-biology) human liver microsomal stability assay; conditions: both, human, microsomes, pH 7.4
Give remaining at 0.25 h, 105 µM for every item shown.
Answers are plain numbers, in %.

Example results:
Return remaining at 0.25 h, 105 µM for the following molecule: "C[C@@H](NCCCc1cccc(C(F)(F)F)c1)c1cccc2ccccc12"
67.4

Give me measured remaining at 0.25 h, 105 µM, please, for this molecule: "CCC1(c2ccccc2)C(=O)NCNC1=O"
71

For each of the molecules below, state remaining at 0.25 h, 105 µM.
1. CN(Cc1ccc(C(C)(C)C)cc1)Cc1cccc2ccccc12
2. CCN(Cc1ccncc1)C(=O)C(CO)c1ccccc1 (stereo not shown) [Tropicamide]
3. CCN(CC)C(=O)c1cccc(C)c1 [Diethyltoluamide]
4. COc1ccc2cc(CCC(C)=O)ccc2c1
5. CCOC(=O)[C@H](C)C[C@@H](Cc1ccc(-c2ccccc2)cc1)NC(=O)CCC(=O)O

1: 97.8; 2: 95.2; 3: 89; 4: 58; 5: 60.2

Give me remaining at 0.25 h, 105 µM for each of these molecules, listed below.
1. CC(C(=O)O)c1ccc(N2Cc3ccccc3C2=O)cc1 (stereo not shown)
2. CCCNC(C)C(=O)Nc1ccccc1C (stereo not shown)
3. COc1ccccc1N1CCN(CC(O)COc2cccc3ccccc23)CC1 (stereo not shown)
4. CC(C(=O)O)c1ccc(-c2ccccc2)c(F)c1 (stereo not shown)

1: 97.6; 2: 86; 3: 72.2; 4: 50.1

// each listed molecule needs a value for remaining at 0.25 h, 105 µM
1. COC(=O)N[C@H](C(=O)N[C@@H](Cc1ccccc1)[C@@H](O)CN(Cc1ccc(-c2ccccn2)cc1)NC(=O)[C@@H](NC(=O)OC)C(C)(C)C)C(C)(C)C
2. Nc1c2ccccc2nc2ccccc12

1. 84.7
2. 83.7

###

For each record, write down the corresponding C(oil).
assay: Measurement of LogPo/w (n-octanol/water, RP-HPLC); format: physicochemical; conditions: n-octanol phase, n-octanol/water 1:1, 30 °C, 24 h, n = 3
Answers are plain numbers, in mg/mL.

Example results:
Provide only the value of recorded C(oil) for CCCNC(C)C(=O)NC1CCCCC1C (stereo not shown) [compound 15]
1.569

Provide one value: measured C(oil) of COc1ccccc1N1CCN(CC(O)COc2cccc3ccccc23)CC1 (stereo not shown) [Naftopidil]
1.697

# return recorded C(oil) for input C[C@@H](NCCCc1cccc(C(F)(F)F)c1)c1cccc2ccccc12 [Cinacalcet]
8.962

Let's switch to this compound now.
// Input: CC(C)NCC(O)COc1cccc2ccccc12 (stereo not shown) [Propranolol] . Output its C(oil) only.
2.871
